- Test system: HCC-366
- experimental details: relative viability (nuclei count vs DMSO), 5 days (fraction); higher = more cells survive
- assay setup: first compound 0.3162 µM
# relative viability per record follows
Simply state the number, no unit and no words.

- compound: "NC(=O)Nc1cc(-c2cccc(F)c2)sc1C(=O)N[C@H]1CCCNC1 [AZD7762] + CC1(C)CCC(c2ccc(Cl)cc2)=C(CN2CCN(c3ccc(C(=O)NS(=O)(=O)c4ccc(N[C@H](CCN5CCOCC5)CSc5ccccc5)c(S(=O)(=O)C(F)(F)F)c4)cc3)CC2)C1 [Navitoclax] (partner 0.5 µM)"
  relative viability: 0.687
- compound: "NC(=O)Nc1cc(-c2cccc(F)c2)sc1C(=O)N[C@H]1CCCNC1 [AZD7762] + CC(=O)Nc1cccc(-n2c(=O)n(C3CC3)c(=O)c3c(Nc4ccc(I)cc4F)n(C)c(=O)c(C)c32)c1 [Trametinib] (partner 0.02 µM)"
  relative viability: 0.325
- compound: "NC(=O)Nc1cc(-c2cccc(F)c2)sc1C(=O)N[C@H]1CCCNC1 [AZD7762] + Nc1ncn([C@H]2C[C@H](O)[C@@H](CO)O2)c(=O)n1 [Decitabine] (partner 2 µM)"
  relative viability: 0.309

Input: Value lookup for relative viability; key = NC(=O)Nc1cc(-c2cccc(F)c2)sc1C(=O)N[C@H]1CCCNC1 [AZD7762] + O=C(CCCCCCC(=O)Nc1ccccc1)NO [Vorinostat] (partner 1 µM)
Output: 0.188

Input: Subsequent entry: NC(=O)Nc1cc(-c2cccc(F)c2)sc1C(=O)N[C@H]1CCCNC1 [AZD7762] + COc1cc2c(Oc3ccc(NC(=O)C4(C(=O)Nc5ccc(F)cc5)CC4)cc3F)ccnc2cc1OCCCN1CCOCC1 [Foretinib] (partner 0.25 µM)
Output: 0.973

Input: Check NC(=O)Nc1cc(-c2cccc(F)c2)sc1C(=O)N[C@H]1CCCNC1 [AZD7762] + CS(=O)(=O)CCNCc1ccc(-c2ccc3ncnc(Nc4ccc(OCc5cccc(F)c5)c(Cl)c4)c3c2)o1 [Lapatinib] (partner 2 µM) too.
Output: 0.375

Input: Follow-up entry: NC(=O)Nc1cc(-c2cccc(F)c2)sc1C(=O)N[C@H]1CCCNC1 [AZD7762] + Nc1nc2[nH]cc(CCc3ccc(C(=O)N[C@@H](CCC(=O)O)C(=O)O)cc3)c2c(=O)[nH]1 [Pemetrexed] (partner 0.2 µM)
Output: 0.0668
